- System: A673/TR/shEF
- experimentSummary: cell viability (LOESS-normalised, relative to median of negative controls) (log2 ratio); higher = more viable cells (less compound effect), active = hit call of the paper (over 3 MAD below the median)
- condition: 0.25 µM; library screen: screen1; EWS-FLI1 expression: high (no doxycycline); treatment time: 72 h
The whole screen tested about 3,200 compounds, of which about 300 (9.4%) showed activity. For the sample, actives were picked, then their nearest neighbours and some compounds at random.
cell viability (log2) under 0.08 gets TRUE, anything at or over 0.08 gets FALSE.

Query :: In plain terms, does Oc1ccc2c(c1)OC[C@H]1c3cc4c(cc3O[C@@H]21)OCO4 come in under 0.08 for cell viability (log2)?
Result :: TRUE

Query :: And what about the compound Cn1c(=O)[nH]c(=O)c2[nH]cnc21 ?
Result :: FALSE

Query :: And what about the compound COc1ccc(-c2cc(=O)c3c(O)c(OC)c(OC)cc3o2)cc1O ?
Result :: TRUE

Query :: And what about the compound COc1ccc(-c2cc(=O)c3c(O)c(OC)c(OC4OC(COC5OC(C)C(O)C(O)C5O)C(O)C(O)C4O)cc3o2)cc1 (centres undefined) ?
Result :: FALSE

Query :: And what about the compound CC1=C(C(=O)Nc2ccccc2Cl)C(c2ccc(F)cc2)NC(=O)N1 (centres undefined) ?
Result :: FALSE

Query :: And what about the compound CC(C)CCC[C@@H](C)C1CC[C@H]2[C@@H]3CCC4=CC(=O)C=C[C@]4(C)[C@H]3CC[C@]12C (some centres undefined) ?
Result :: FALSE

Query :: And what about the compound COc1ccc(-c2cc(=O)c3c(O)cc(O)cc3o2)cc1O ?
Result :: TRUE

Query :: And what about the compound COc1ccc(-c2cc(=O)c3c(O)cc(O[C@@H]4O[C@H](CO[C@@H]5O[C@@H](C)[C@H](O)[C@@H](O)[C@H]5O)[C@@H](O)[C@H](O)[C@H]4O)cc3o2)cc1 ?
Result :: TRUE
